Values from patent US5110927A

measuredOn: α1-adrenoceptor (3H-prazosin binding sites)
assay: intact animal study: intraperitoneal injection, membranes prepared 16 hours later and assayed for saturation of 3H-prazosin binding
Format: in vivo, rat
conditionDetails: 10 mg/kg i.p., brain, control 0.317 ± 0.071, read-out: Kd, experimental, brain
endpointLabel: pKd
Hey, just a heads up that pKd is the negative log base 10 of the concentration in molar.

In: Which pKd value belongs to COc1cc2nc(N3CCN(C(=O)C4=CC5C=CC4CC5)CC3)nc(N)c2cc1OC (stereo not shown) ?
Out: 9.53

* * *

measuredOn: α1-adrenoceptor (3H-prazosin binding sites)
assay: displacement of 3H-prazosin from rat cerebral cortical (brain) membranes
conditionDetails: FIG. 1, rat brain cortex membranes; read-out: Apparent Ki at 3H-prazosin binding sites
Procedure: IC50 values and apparent Ki values were determined as in Table 1. Rat brain cortices were homogenized in approximately 30 volumes/wet weight of 50 mM Tris buffer, pH 7.4, containing 10 mM MgCl2 by use of a Polytron (setting 6 for 10 seconds). […] Specific binding was defined as the difference between total binding (measured in the absence of any ligand) and non-specific binding (measured in the presence of 10 microM phentolamine). […]
endpointLabel: pKi
Hey, just a heads up that pKi is the negative log base 10 of the concentration in molar.

In: Which pKi value belongs to COc1cc2nc(N3CCN(C(=O)C4=CC5C=CC4CC5)CC3)nc(N)c2cc1OC (stereo not shown) ?
Out: 8.46
